# System: rabbit skeletal myofibrils (fast skeletal myofibrils)
# EXPERIMENT_SUMMARY: Activation of fast skeletal myofibrils (PUMA assay, PK/LDH-coupled ATPase at pCa25)
# Format: biochemical
# RECORDED_CONDITIONS: median AC1.4 reported as class; procedure of Example 39
METRIC: Mean AC1.4

>>> observed_value("CC(C)(CNc1ccc(-c2ncc(CC(N)=O)s2)nn1)c1ncccc1Cl")
"B (B=1-10 uM)"
>>> observed_value("CNC(=O)Cc1cnc(-c2ccc(NC[C@]3(c4ncccc4Cl)C[C@H](F)C3)nn2)s1")
"B (B=1-10 uM)"
>>> observed_value("O=C(NCc1ccncc1)c1ccc(NCC2(c3ncccc3F)CCC2)nn1")
"D (D=>20 uM)"
>>> observed_value("NC(=O)CCc1cnc(-c2ccc(NCC3(c4ncccc4F)CCC3)nn2)s1")
"B (B=1-10 uM)"

Kindly review the next compound as well.
Answer with reported Mean AC1.4 of `CNC(=O)N(C)c1ccc(-c2ccc(NC[C@]3(c4ncccc4F)C[C@H](F)C3)nn2)cc1`
D (D=>20 uM)
